Tested on: SNB-75 CNS
Assay: NCI tumour cell line growth inhibition, 48 h
readout_kind: TGI

Illustrative cases are given below, each with its answer.
# compound, measured_value
records = [
    ("CN(C)CC1CCCC/C1=N/OC(=O)c1ccc(Cl)c(Cl)c1 (stereo not given)", "> 100 µM"),
    ("NS(=O)(=O)c1ccc(NC(=O)Nc2ccccc2F)cc1", "> 100 µM"),
    ("CC1=CC(=O)/C(=C/n2c(=S)[nH]c3ccccc32)C(=O)O1", "> 100 µM"),
    ("CCc1nc(-n2c(-c3ccccc3)nc3ccccc3c2=O)nc(N)c1-c1ccc(Cl)cc1", "> 100 µM"),
]

API: the following record is the query input.
What TGI appears in the records for this compound with SNB-75 CNS? COc1ccc(C[C@@H]2OC3(C=CC(=O)C=C3)O[C@H]2Cc2ccc(OC)cc2)cc1
3.04 µM

----------
Catalogue of TGI values
System: OVCAR-3 ovarian
Assay: NCI tumour cell line growth inhibition, 48 h

Bench note: what TGI did NC(=O)N/N=C(/c1nc2ccc([N+](=O)[O-])cc2[nH]c1=O)C(O)c1ccco1 (stereo not given) show?
> 100 µM

Bench note: what TGI did COc1cc(/C=N\O)nc(-c2ccccn2)c1 show?
> 100 µM

Bench note: what TGI did Cc1ccc(NC(=O)CCC(=O)C(C#N)c2ccccc2)cc1C (stereo not given) show?
> 100 µM

Bench note: what TGI did COc1c(N2CCN(Cn3c(O)c(N=NC(=O)c4ccncc4)c4cc(F)ccc43)C(C)C2)c(F)cc2c(=O)c(C(=O)O)cn(C3CC3)c12 (stereo not given) show?
23.8 µM

Bench note: what TGI did CCCCCCCCCCCCCCCCP(=O)([O-])OCC[N+](C)(C)C show?
31.6 µM

----------
Tested on: SW-620 colon
Assay: NCI tumour cell line growth inhibition, 48 h
readout_kind: TGI

# compound, readout_kind, measured_value
rows = [
    ("CC(C)N(C(C)C)P(OCCC#N)OC1CC(n2cnc3c(=O)[nH]cnc32)OC1COC(=O)NCCCCCCNC(=O)OC(C)(C)c1ccc(-c2ccccc2)cc1 (centres undefined)", "TGI", "> 100 µM"),
    ("O=C(NCCCCOCC#Cc1ccccc1C#CCS(=O)(=O)c1ccccc1)c1cc2ccccc2[nH]1", "TGI", "> 45.5 µM"),
    ("COC(=O)C1CC(C(=O)OC)c2nc3cc(C)c(C)cc3nc21 (centres undefined)", "TGI", "> 100 µM"),
    ("COc1ccc(NC(=O)/C=C(C)/C=C/C=C(C)\\C=C\\C2=C(C)CCCC2(C)C)cc1", "TGI", "> 100 µM"),
    ("C=C1c2nc3ccccc3n2C=C(c2ccc(OC)cc2)N1c1ccc(OCCN2CCOCC2)cc1", "TGI", "> 100 µM"),
    ("CN(C)c1ccc(/C=c2/c3cc([N+](=O)[O-])ccc3n3c2cc(-c2ccccc2)[n+]3C)cc1", "TGI", "2.75 µM"),
    ("O=C(O)CC(O)(C(=O)O)C(O)C(=O)O (centres undefined)", "TGI", "> 1000 µM"),
    ("OC(c1ccccc1)(c1cccnc1)C(O)(c1ccccc1)c1cccnc1 (centres undefined)", "TGI", "> 100 µM"),
]

API: the following record is the query input.
What TGI appears in the records for this compound with SW-620 colon? Cc1ncc([N+](=O)[O-])n1CCNC(=O)CCCCCn1ccnc1[N+](=O)[O-]
> 100 µM

----------
Test system: SK-MEL-5 melanoma
Test: NCI tumour cell line growth inhibition, 48 h
Catalogue of TGI values

# molecule, study_system, measured_value
measured = [
    ("CCOc1cc(C(C)(C)C)ccc1C1=N[C@@](C)(c2ccc(Cl)cc2)[C@@](C)(c2ccc(Cl)cc2)N1C(=O)N1CCN(CCS(C)(=O)=O)CC1", "SK-MEL-5 melanoma", "2.73 µM"),
    ("C[N+](C)([O-])CCCNc1ccnc2cccc([N+](=O)[O-])c12", "SK-MEL-5 melanoma", "33.4 µM"),
    ("COC(=O)[C@]12CC[C@@H](C)[C@H](C)[C@@H]1C1=CC[C@@H]3[C@@]4(C)CC(=O)[C@H](OC(=O)c5ccco5)[C@@]5(C)COC(=C45)C[C@@]3(C)[C@]1(C)CC2", "SK-MEL-5 melanoma", "2.54 µM"),
    ("CCOP(=O)(OCC)C(Nc1ccc(F)cc1)c1ccccc1 (centres undefined)", "SK-MEL-5 melanoma", "> 100 µM"),
]

Bench note: what TGI did CC1=C(C(=O)Nc2ccccc2)C(c2ccc(C(C)C)cc2)C(C(=O)Nc2ccccc2)=C(C)N1 show?
27 µM

----------
Test system: TK-10 renal
Experiment: NCI tumour cell line growth inhibition, 48 h
readout_kind: TGI

# molecule, study_system, TGI
rows = [
    ("Cc1sc2ncn(Cc3ccc(Cl)c(Cl)c3)c(=O)c2c1C", "TK-10 renal", "7.91 µM"),
    ("CCN1CCNc2c3cc(OC)ccc3nc3c([N+](=O)[O-])ccc1c23", "TK-10 renal", "> 10 µM"),
    ("C[N+](C)(N)c1nc(N)c(C#N)c(C#N)c1C#N", "TK-10 renal", "> 10 µM"),
    ("CN1C(=O)N(C)C2(CCN(CCCCCCF)CC2)C1=O", "TK-10 renal", "> 100 µM"),
    ("NCP(=O)(O)OCC(=O)O", "TK-10 renal", "> 100 µM"),
    ("CCN(CC)CCNc1ccc2ncn3c4cc(=O)ccc4c(O)c1c23", "TK-10 renal", "47.1 µM"),
    ("c1ccc(C2[C@@H]3CCCc4ccccc4C3=NN2c2ccccc2)cc1 (some centres not stated)", "TK-10 renal", "> 100 µM"),
    ("COc1ccccc1N=C1SCCN1C(=S)Nc1ccc(S(=O)(=O)/N=C/N(C)C)cc1", "TK-10 renal", "> 100 µM"),
    ("NS(=O)(=O)c1ccc(NC(=O)Nc2ccccc2F)cc1", "TK-10 renal", "> 100 µM"),
    ("C=CC(Br)(CBr)CCC(Br)C(C)C (configuration not stated)", "TK-10 renal", "10.4 µM"),
]

Bench note: what TGI did c1ccc(CCn2cncn2)cc1 show?
> 100 µM

Bench note: what TGI did CCc1nc(-n2c(-c3ccccc3)nc3ccccc3c2=O)nc(N)c1-c1ccc(Cl)cc1 show?
> 100 µM

----------
Test system: HOP-62 NSCLC
Assay: NCI tumour cell line growth inhibition, 48 h
readout_kind: TGI (µM)
Reply numerically in µM, unit not repeated.

# compound, study_system, unit_info, TGI
measured = [
    ("CCOC(=O)c1ccccc1-c1c2ccc(=[N+](C)C)cc-2oc2cc(N(C)C)ccc12", "HOP-62 NSCLC", "µM", 10.3),
    ("CC1(C)[C@@H](OC(N)=O)C=C[C@]2(C=O)[C@H]3CC[C@]4(C)[C@@H](c5ccc(=O)oc5)[C@@H](Cl)C[C@]4(O)C3=CC[C@@H]12", "HOP-62 NSCLC", "µM", 0.00699),
]

Bench note: what TGI did NCCCC[C@H](N)C(=O)Nc1ccc(-c2nc3ccccc3s2)cc1Cl show?
31.7

Bench note: what TGI did CC1CC[C@@]2(OC1)OC1C[C@H]3[C@@H]4CCC5CC(O)CC[C@]5(C)[C@H]4C/C(=N\N(C)C)[C@]3(C)C1[C@@H]2C (stereo not given in full) show?
54.7

Bench note: what TGI did Brc1cccc[n+]1-c1ccc2cc(-[n+]3ccccc3Br)ccc2c1 show?
75.6

----------
System: RPMI-8226 leukemia
Assay: NCI tumour cell line growth inhibition, 48 h; in the data active = GI50 below about 0.43 µM; inactive = the rest
Returns: one label drawn from active, inactive

# compound, study_system, class_name
data = [
    ("O=C(Nc1cc(-c2cccnc2)nc(NCCCN2CCOCC2)n1)c1cc(Br)cc(C(F)(F)F)c1", "RPMI-8226 leukemia", "inactive"),
    ("OC(COc1cccc2ccccc12)CN1CCN(c2ccccc2Cl)CC1 (stereo not given)", "RPMI-8226 leukemia", "inactive"),
    ("CN1CCN(CCOc2ccc(-c3cnc4c(-c5ccc(F)cc5)cnn4c3)cc2)CC1", "RPMI-8226 leukemia", "inactive"),
    ("CCCCCCCCCCSCC(CO)NC(=O)/C=C/c1c(C)[nH]c(=O)[nH]c1=O (stereo not given)", "RPMI-8226 leukemia", "inactive"),
]

Tell me the assay call for CCOC(=O)c1ccccc1-c1c2ccc(=[N+](C)C)cc-2oc2cc(N(C)C)ccc12 please.
active

Tell me the assay call for O=C(CC(=O)c1ccccc1)c1ccccc1 please.
inactive

Tell me the assay call for O=C(NCCCCOCC#Cc1ccccc1C#CCS(=O)(=O)c1ccccc1)c1cc2ccccc2[nH]1 please.
inactive

Tell me the assay call for Oc1c(CN2CCOCC2)cc(COCc2ccccc2)c2cccnc12 please.
inactive

Tell me the assay call for CCc1nc(-n2c(-c3ccccc3)nc3ccccc3c2=O)nc(N)c1-c1ccc(Cl)cc1 please.
inactive

Tell me the assay call for CCOC(=O)Cc1csc(NC(=O)COC(=O)c2ccc(OC)cc2)n1 please.
inactive
